- assay-text: Pharmacokinetic test (BA, CLtot)
- Format: in vivo
- test-conditions: rat, plasma; SD rats, intravenous administration 0.5 mg/kg
measured-endpoint: clearance (mL/min/kg)

Consider the following illustrative entries.
compound	measurement-unit	assay-value
Cc1ccc(Cn2c(=O)n(C[C@H](C)C(=O)O)c(=O)[nH]/c2=N\c2ccc(Oc3cccc(F)n3)cc2)cc1 [Compound I-057]	mL/min/kg	22.9
C[C@@H](Cn1c(=O)[nH]/c(=N\c2ccc(Oc3cccc(Cl)n3)cc2)n(Cc2ccc(Cl)cc2)c1=O)C(=O)O [Compound I-014]	mL/min/kg	4
Cc1ccc(Cn2c(=O)n(C[C@H](C)C(=O)O)c(=O)[nH]/c2=N\c2ccc(Oc3ccc(F)cn3)cc2)cc1 [Compound I-040]	mL/min/kg	28.6

[1] O=C(O)C1(Cn2c(=O)[nH]/c(=N\c3ccc(Oc4cccc(F)n4)cc3)n(Cc3ccc(Cl)cc3)c2=O)CC1 [Compound I-017]
[2] C[C@@H](Cn1c(=O)[nH]/c(=N\c2ccc(Oc3ccccn3)cc2)n(Cc2ccc(Cl)cc2)c1=O)C(=O)O [Compound I-127]
[3] Cc1ccc(Oc2ccc(/N=c3\[nH]c(=O)n(CC(C)(C)C(=O)O)c(=O)n3Cc3ccc(Cl)cc3)cc2)nc1 [Compound I-058]
Query: Reorder the items by clearance, least to greatest. Dear reader, please state the labels in the requested order.
Result: 1, 2, 3
(1: 2.3 mL/min/kg, 2: 3.8 mL/min/kg, 3: 5.8 mL/min/kg)
